Here the recorded Minimum inhibitory concentration is given for each entry.
- System: clinical strains of Enterobacter cloacae
- Experimental protocol: MIC, clinical strains of Enterobacter cloacae
- Format: cell-based
- Design: unit: μg/ml
- Measurement setup: Enterobacter cloacae clinical strain 1; microdilution, Muller Hinton broth-cation adjusted, 0.02% BSA, 0.2% acetic acid
Where a SMILES comes first, the peptide text is derived from it. [ ]: non-standard residue; d: D form.

Compound	Minimum inhibitory concentration
CC[C@@H](C)[C@@H](N)C(=O)N[C@H](Cc1c[nH]c2ccccc12)C(=O)N[C@H](CCCCN)C(=O)N[C@H](CCCNC(=N)N)C(=O)N[C@H](Cc1ccccc1)C(=O)N[C@H](CCCNC(=N)N)C(=O)N[C@H](CC(C)C)C(=O)N[C@H](Cc1ccccc1)C(=O)N[C@H](CCCCN)C(=O)N[C@H](CCCCN)C(=O)N[C@H](Cc1c[nH]c2ccccc12)C(=O)O [Chain304D] (H-[dI][dW][dK][dR][dF][dR][dL][dF][dK][dK][dW]-OH)	64

Next up:
Input: What does the data say about its Minimum inhibitory concentration? Entry: CC(C)C[C@@H](NC(=O)[C@H](N)CCCNC(=N)N)C(=O)N[C@H](CCCCN)C(=O)N[C@H](Cc1c[nH]c2ccccc12)C(=O)N[C@H](Cc1ccccc1)C(=O)N[C@H](Cc1c[nH]c2ccccc12)C(=O)N[C@H](CC(C)C)C(=O)N[C@H](Cc1ccccc1)C(=O)N[C@H](CCCNC(=N)N)C(=O)N[C@H](CCCCN)C(=O)N[C@H](CCCNC(=N)N)C(=O)O [Chain307D] (H-[dR][dL][dK][dW][dF][dW][dL][dF][dR][dK][dR]-OH)
Output: 4

====

- System: clinical strains of Pseudomonas aeruginosa
- Experimental protocol: MIC, clinical strains of P. aeruginosa
- Type: cell-based
- Design: unit: μg/ml
- Measurement setup: Pseudomonas aeruginosa clinical strain 3; microdilution, Muller Hinton broth-cation adjusted, 0.02% BSA, 0.2% acetic acid
Where a SMILES comes first, the peptide text is derived from it. [ ]: non-standard residue; d: D form.
Outcome measure: Minimum inhibitory concentration

Example entries begin here.
Compound	Target or test system	Minimum inhibitory concentration
CC(C)C[C@@H](NC(=O)[C@H](N)CCCNC(=N)N)C(=O)N[C@H](CCCCN)C(=O)N[C@H](CCCNC(=N)N)C(=O)N[C@H](Cc1c[nH]c2ccccc12)C(=O)N[C@H](CCCNC(=N)N)C(=O)N[C@H](CC(C)C)C(=O)N[C@H](Cc1ccccc1)C(=O)N[C@H](CCCNC(=N)N)C(=O)N[C@H](CCCCN)C(=O)N[C@H](CCCNC(=N)N)C(=O)O [Chain306D] (H-[dR][dL][dK][dR][dW][dR][dL][dF][dR][dK][dR]-OH)	clinical strains of Pseudomonas aeruginosa	128
CC(C)C[C@@H](NC(=O)[C@H](N)CCCNC(=N)N)C(=O)N[C@H](CCCCN)C(=O)N[C@H](Cc1c[nH]c2ccccc12)C(=O)N[C@H](Cc1ccccc1)C(=O)N[C@H](CC(C)C)C(=O)N[C@H](CC(C)C)C(=O)N[C@H](Cc1ccccc1)C(=O)N[C@H](CCCNC(=N)N)C(=O)N[C@H](CCCCN)C(=O)N[C@H](CCCNC(=N)N)C(=O)O [Chain308D] (H-[dR][dL][dK][dW][dF][dL][dL][dF][dR][dK][dR]-OH)	clinical strains of Pseudomonas aeruginosa	4

Input: # input compound: CC(C)C[C@@H](NC(=O)[C@H](N)CCCNC(=N)N)C(=O)N[C@H](CCCCN)C(=O)N[C@H](Cc1c[nH]c2ccccc12)C(=O)N[C@H](Cc1ccccc1)C(=O)N[C@H](Cc1c[nH]c2ccccc12)C(=O)N[C@H](CC(C)C)C(=O)N[C@H](Cc1ccccc1)C(=O)N[C@H](CCCNC(=N)N)C(=O)N[C@H](CCCCN)C(=O)N[C@H](CCCNC(=N)N)C(=O)O [Chain307D] (H-[dR][dL][dK][dW][dF][dW][dL][dF][dR][dK][dR]-OH) ; wanted: its Minimum inhibitory concentration
Output: 16

Input: GET /values?readout=Minimum inhibitory concentration&item= CC(C)C[C@@H](NC(=O)[C@@H](Cc1c[nH]c2ccccc12)NC(=O)[C@@H](Cc1ccccc1)NC(=O)[C@@H](Cc1c[nH]c2ccccc12)NC(=O)[C@@H](CCCCN)NC(=O)[C@@H](CCCNC(=N)N)NC(=O)[C@H](N)Cc1c[nH]c2ccccc12)C(=O)N[C@H](Cc1ccccc1)C(=O)N[C@H](CCCCN)C(=O)N[C@H](CCCCN)C(=O)N[C@H](CCCNC(=N)N)C(=O)O [Chain309D] (H-[dW][dR][dK][dW][dF][dW][dL][dF][dK][dK][dR]-OH)
Output: 16

====

Recorded Minimum inhibitory concentration for the following compounds
- Test system: clinical strains of C. quillermondiae
- Experimental protocol: MIC, clinical yeast strains, C. quillermondiae
- Type: cell-based
- Measurement setup: C. quillermondiae clinical yeast strain 1
Where a SMILES comes first, the peptide text is derived from it. [ ]: non-standard residue; d: D form.

Compound	Minimum inhibitory concentration
CC(C)C[C@@H](NC(=O)[C@H](N)CCCNC(=N)N)C(=O)N[C@H](CCCCN)C(=O)N[C@H](Cc1c[nH]c2ccccc12)C(=O)N[C@H](Cc1ccccc1)C(=O)N[C@H](Cc1c[nH]c2ccccc12)C(=O)N[C@H](CC(C)C)C(=O)N[C@H](Cc1ccccc1)C(=O)N[C@H](CCCNC(=N)N)C(=O)N[C@H](CCCCN)C(=O)N[C@H](CCCNC(=N)N)C(=O)O [Chain307D] (H-[dR][dL][dK][dW][dF][dW][dL][dF][dR][dK][dR]-OH)	4
CC(C)C[C@@H](NC(=O)[C@H](N)CCCNC(=N)N)C(=O)N[C@H](CCCCN)C(=O)N[C@H](CCCNC(=N)N)C(=O)N[C@H](Cc1c[nH]c2ccccc12)C(=O)N[C@H](CCCNC(=N)N)C(=O)N[C@H](CC(C)C)C(=O)N[C@H](Cc1ccccc1)C(=O)N[C@H](CCCNC(=N)N)C(=O)N[C@H](CCCCN)C(=O)N[C@H](CCCNC(=N)N)C(=O)O [Chain306D] (H-[dR][dL][dK][dR][dW][dR][dL][dF][dR][dK][dR]-OH)	4
CC(C)C[C@@H](NC(=O)[C@H](N)CCCNC(=N)N)C(=O)N[C@H](CCCCN)C(=O)N[C@H](Cc1c[nH]c2ccccc12)C(=O)N[C@H](Cc1ccccc1)C(=O)N[C@H](CC(C)C)C(=O)N[C@H](CC(C)C)C(=O)N[C@H](Cc1ccccc1)C(=O)N[C@H](CCCNC(=N)N)C(=O)N[C@H](CCCCN)C(=O)N[C@H](CCCNC(=N)N)C(=O)O [Chain308D] (H-[dR][dL][dK][dW][dF][dL][dL][dF][dR][dK][dR]-OH)	4
CC(C)C[C@@H](NC(=O)[C@@H](CCCCN)NC(=O)[C@@H](Cc1c[nH]c2ccccc12)NC(=O)[C@@H](CCCCN)NC(=O)[C@@H](C)NC(=O)[C@@H](Cc1c[nH]cn1)NC(=O)[C@@H](CC(C)C)NC(=O)[C@@H](CCCNC(=N)N)NC(=O)[C@@H](Cc1c[nH]c2ccccc12)NC(=O)[C@H](N)Cc1c[nH]c2ccccc12)C(=O)N[C@H](Cc1c[nH]c2ccccc12)C(=O)O [Chain109D] (H-[dW][dW][dR][dL][dH][dA][dK][dW][dK][dL][dW]-OH)	128

Input: Which Minimum inhibitory concentration is listed for CC(C)C[C@@H](NC(=O)[C@H](N)CCCCN)C(=O)N[C@H](CCCCN)C(=O)N[C@H](Cc1c[nH]c2ccccc12)C(=O)N[C@H](Cc1ccccc1)C(=O)N[C@H](Cc1c[nH]c2ccccc12)C(=O)N[C@H](CC(C)C)C(=O)N[C@H](Cc1ccccc1)C(=O)N[C@H](CCCCN)C(=O)N[C@H](CCCCN)C(=O)N[C@H](CCCNC(=N)N)C(=O)O [Chain311D] (H-[dK][dL][dK][dW][dF][dW][dL][dF][dK][dK][dR]-OH) ?
Output: 4

====

Each item that follows carries a reported Minimum inhibitory concentration.
- Test system: clinical strains of Pseudomonas aeruginosa
- Experimental protocol: MIC, clinical strains of P. aeruginosa
- Type: cell-based
- Set-up: unit: μg/ml
- Measurement setup: Pseudomonas aeruginosa clinical strain 3; microdilution, Muller Hinton broth-cation adjusted, 0.02% BSA, 0.2% acetic acid
- Description: Minimum inhibition concentrations (MICs) were determined against Escherichia coli (ATCC 25922), Staphylococcus aureus (ATCC 25923), Klebsiella pneumoniae (ATCC 10031) and Pseudomonas aeruginosa (ATCC 27853). […] The susceptibility of these microorganisms to Chain peptides were determined using micro broth dilution assay. […] Concentrations of Chain peptides and reference antibiotics ranged from 0.125 to 128 μg/ml and the MICs were recorded as the lowest concentration with no visual growth of bacteria. […]
Where a SMILES comes first, the peptide text is derived from it. [ ]: non-standard residue; d: D form.
When you answer, write just the number.

Compound	Target or test system	Minimum inhibitory concentration
CC[C@@H](C)[C@@H](NC(=O)[C@@H](CC(C)C)NC(=O)[C@@H](CCCNC(=N)N)NC(=O)[C@H](N)CCCNC(=N)N)C(=O)N[C@H](Cc1c[nH]c2ccccc12)C(=O)N[C@H](CCCNC(=N)N)C(=O)N[C@H](CCCNC(=N)N)C(=O)N[C@H](Cc1ccccc1)C(=O)N[C@H](CCCCN)C(=O)N[C@H](Cc1c[nH]c2ccccc12)C(=O)N[C@H](CC(C)C)C(=O)N[C@H](CCCNC(=N)N)C(=O)O [Chain204D] (H-[dR][dR][dL][dI][dW][dR][dR][dF][dK][dW][dL][dR]-OH)	clinical strains of Pseudomonas aeruginosa	8

# ---- query compound ----
Input: For the compound CC[C@@H](C)[C@@H](NC(=O)[C@@H](Cc1c[nH]c2ccccc12)NC(=O)[C@H](N)CCCCN)C(=O)N[C@@H](C(=O)N[C@H](Cc1c[nH]c2ccccc12)C(=O)N[C@H](CCCNC(=N)N)C(=O)N[C@H](Cc1c[nH]c2ccccc12)C(=O)N[C@H](CCCNC(=N)N)C(=O)N[C@H](Cc1ccccc1)C(=O)N[C@H](CCCCN)C(=O)N[C@H](CCCNC(=N)N)C(=O)O)C(C)C [Chain201D] (H-[dK][dW][dI][dV][dW][dR][dW][dR][dF][dK][dR]-OH) , what Minimum inhibitory concentration is on record?
Output: 4

Measured values drawn from patent US11096985B2 for this set.
